Numbers sourced from patent US20240150294A1.

- SYSTEM NAME: ERα (Homo sapiens, UniProt P03372)
- Construct: endogenous in cells
- PROTOCOL NOTES: Transcriptional reporter gene assay (estrogen response element-GFP) in MCF7 cells
- SETUP CONDITIONS: ERE-controlled green fluorescent protein, reduction in fluorescence
pIC50: −log10 of the molar value.

>  <COMPOUND>
C[C@H]1CCN(CCOc2ccc(C3c4ccc(O)cc4CC4(CC4)N3C(=O)c3ccccc3)cc2)C1 (stereo partly shown)

>  <pIC50>
8.32

$$$$
>  <COMPOUND>
CCNCCOc1ccc(C2c3ccc(O)cc3CC3(CC3)N2C(=O)c2ccccc2)cc1 (stereo not shown)

>  <pIC50>
6.65

$$$$
>  <COMPOUND>
CC1CCN(CCOc2ccc(C3c4ccc(O)cc4CC4(CC4)N3C(=O)c3ccccc3)cc2)C1 (mixture of isomers)

>  <pIC50>
8.41

$$$$
>  <COMPOUND>
CCN1CCC(CCOc2ccc(C3c4ccc(O)cc4CC4(CC4)N3C(=O)c3ccccc3)cc2)C1 (stereo not shown)

>  <pIC50>
7.68

$$$$
>  <COMPOUND>
CC1=C(c2ccc(O)cc2)[C@H](c2ccc(OCCN3CC[C@@H](C)C3)cc2)Oc2cc(O)ccc21 [OP1074, reference compound]

>  <pIC50>
9.77

$$$$
>  <COMPOUND>
O=C(c1ccccc1)N1C(c2ccc(OCCN3CCCCCC3)cc2)c2ccc(O)cc2CC12CC2 (stereo not shown)

>  <pIC50>
7.31

$$$$
>  <COMPOUND>
CN(C)CCOc1ccc(C2c3ccc(O)cc3CC3(CC3)N2C(=O)c2ccccc2)cc1 (stereo not shown)

>  <pIC50>
6.13

$$$$

###

Examples of compounds with documented pIC50 follow.
- SYSTEM NAME: ERα (Homo sapiens, UniProt P03372)
- Construct: endogenous in cells
- Sequence (P03372 1-595): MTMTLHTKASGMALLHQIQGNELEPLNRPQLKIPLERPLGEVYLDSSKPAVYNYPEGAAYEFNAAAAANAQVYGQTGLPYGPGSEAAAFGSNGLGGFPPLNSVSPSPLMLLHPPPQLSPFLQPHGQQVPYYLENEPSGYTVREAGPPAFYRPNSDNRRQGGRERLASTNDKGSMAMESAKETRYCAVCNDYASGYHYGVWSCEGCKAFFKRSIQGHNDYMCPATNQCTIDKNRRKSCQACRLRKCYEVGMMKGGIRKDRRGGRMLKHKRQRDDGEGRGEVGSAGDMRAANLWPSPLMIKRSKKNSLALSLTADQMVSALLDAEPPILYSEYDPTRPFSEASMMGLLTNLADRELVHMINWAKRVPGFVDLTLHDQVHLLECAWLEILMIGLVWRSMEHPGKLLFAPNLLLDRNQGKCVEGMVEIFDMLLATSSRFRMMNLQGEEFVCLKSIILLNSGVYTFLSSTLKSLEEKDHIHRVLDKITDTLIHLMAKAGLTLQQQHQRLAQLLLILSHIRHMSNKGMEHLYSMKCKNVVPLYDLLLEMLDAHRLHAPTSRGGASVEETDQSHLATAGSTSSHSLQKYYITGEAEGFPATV
- PROTOCOL NOTES: Transcriptional reporter gene assay (estrogen response element-GFP) in MCF7 cells
- SETUP CONDITIONS: ERE-controlled green fluorescent protein, reduction in fluorescence
pIC50: −log10 of the molar value.
READOUT NAME: pIC50

>  <COMPOUND>
O=C(c1ccccc1)N1C(c2ccc(OCCN3CCCCC3)cc2)c2ccc(O)cc2CC12CC2 (stereo not drawn)

>  <MEAS VALUE>
7.63

$$$$
>  <COMPOUND>
CCCN1CCC(COc2ccc(C3c4ccc(O)cc4CC4(CC4)N3C(=O)c3ccccc3)cc2)C1 (stereo not drawn)

>  <MEAS VALUE>
7.72

$$$$
>  <COMPOUND>
CCN1CCC(Oc2ccc(C3c4ccc(O)cc4CC4(CC4)N3C(=O)c3ccccc3)cc2)C1 (stereo not drawn)

>  <MEAS VALUE>
7.23

$$$$
>  <COMPOUND>
CCN1CC(Oc2ccc(C3c4ccc(O)cc4CC4(CC4)N3C(=O)c3ccccc3)cc2)C1 (stereo not drawn)

>  <MEAS VALUE>
6.45

$$$$
>  <COMPOUND>
CCCN1CC(Oc2ccc(C3c4ccc(O)cc4CC4(CC4)N3C(=O)c3ccccc3)cc2)C1 (stereo not drawn)

>  <MEAS VALUE>
6.89

$$$$
>  <COMPOUND>
CNCCOc1ccc(C2c3ccc(O)cc3CC3(CC3)N2C(=O)c2ccccc2)cc1 (stereo not drawn)

>  <MEAS VALUE>
6.30

$$$$
